I'd be grateful if you could share measured cell viability for these entries.
system: Vero E6; test: cell viability relative to DMSO; higher = less toxic; conditions: 72 h; 1000 nM
The reply should contain only the number, in %.

IN: Which measured cell viability value corresponds to O=C([O-])C(O)[C@H](O)[C@@H](O)[C@H](O)[C@H](O)CO.O=C([O-])C(O)[C@H](O)[C@@H](O)[C@H](O)[C@H](O)CO.[Ca+2] (some centres undefined) [calcium-gluceptate] ?
OUT: 82.3

IN: Try the molecule `O=C1CN(/N=C/c2ccc([N+](=O)[O-])o2)C(=O)N1`
OUT: 96.7

IN: Can you check CC(=C(CCOC(=O)C(C)C)SSC(CCOC(=O)C(C)C)=C(C)N(C=O)Cc1cnc(C)nc1N)N(C=O)Cc1cnc(C)nc1N (stereo in doubt) next?
OUT: 89.2

IN: Do the same for `C[N+](C)(C)CCCCCNCC12CC3CC(CC(C3)C1)C2` please
OUT: 92.5

====

system: U2OS; test: cell viability relative to DMSO; higher = less toxic; conditions: 72 h; 10000 nM
MEASURED ATTRIBUTE: cell viability (%)
Write the value in % as a bare number.

IN: # lookup: cell viability of CCCN(CCC)C(=O)C(CCC(=O)OCCCN1CCN(CCOC(=O)Cc2c(C)n(C(=O)c3ccc(Cl)cc3)c3ccc(OC)cc23)CC1)NC(=O)c1ccccc1 (stereo unspecified) [proglumetacin]
OUT: 94

IN: What about this compound? CN(C)CC[C@@](O)(c1ccccc1)c1ccccc1Cl [clofedanol]
OUT: 100

IN: Follow-up entry: O=C(O)c1ccc(/C=C2\SC(=S)N(c3cccc(C(F)(F)F)c3)C2=O)cc1 [CFTRinh-172]
OUT: 99.4

IN: Lookup CCc1nc(N)nc(N)c1-c1ccc(Cl)cc1 [pyrimethamine]
OUT: 96.8

IN: Brc1c(Br)c(Br)c2[nH]nnc2c1Br [4,5,6,7-tetrabromobenzotriazole] ?
OUT: 99.2

IN: What do you have for Nc1ccc(F)cc1NC(=O)c1ccc(CNC(=O)/C=C/c2cccnc2)cc1 [chidamide] ?
OUT: 9.8

IN: Subsequent entry: O=C1NC(=O)C(c2ccccc2)(c2ccccc2)N1 [phenytoin]
OUT: 98.9

IN: Same question for CS(=O)(=O)c1ccc([C@@H](O)[C@@H](CO)NC(=O)C(Cl)Cl)cc1 [thiamphenicol] please.
OUT: 99

IN: Also, c1cc(OCCN2CCCCC2)cc(-c2n[nH]c3ccc(-c4nnc[nH]4)cc23)c1 [CC-401] please.
OUT: 93.4

IN: Okay, and CCOC(=O)CCC(=O)O[C@H]1[C@H](O[C@@H]2[C@@H](C)[C@H](O[C@H]3C[C@@](C)(OC)[C@@H](O)[C@H](C)O3)[C@@H](C)C(=O)O[C@H](CC)[C@@](C)(O)[C@H](O)[C@@H](C)C(=O)[C@H](C)C[C@@]2(C)O)O[C@H](C)C[C@@H]1N(C)C [erythromycin-ethylsuccinate] ?
OUT: 100

IN: Same lookup for CC(C)(C)c1cc(C(=O)/C(C#N)=N/Nc2cccc(Cl)c2)no1 [ESI-09] , please.
OUT: 87.6

IN: One more compound: CC1(C)S[C@@H]2[C@H](NC(=O)Cc3ccccc3)C(=O)N2[C@H]1C(=O)O [benzylpenicillin]
OUT: 104

IN: For Clc1ccc(CSC(Cn2ccnc2)c2ccc(Cl)cc2Cl)cc1 (stereo unspecified) [sulconazole] then?
OUT: 93.7

IN: Also check CC(=O)[C@@]1(O)CC[C@H]2[C@@H]3C[C@H](C)C4=CC(=O)CC[C@]4(C)[C@H]3CC[C@@]21C [medroxyprogesterone]
OUT: 94.8

IN: Same question for Cc1ccc(-c2ncc(Cl)cc2-c2ccc(S(C)(=O)=O)cc2)cn1 [etoricoxib] please.
OUT: 94.2

IN: Consider next the compound O=C(Nc1ccccc1)c1ccccc1O [salicylanilide] in the same way.
OUT: 97.5
